molecular target: Sigma non-opioid intracellular receptor 1 (Homo sapiens); details: Compound concentration 10 µM
Description: PDSP Primary Binding target: SIGMAR1 - Compounds are tested at 10 uM concentration, plate are incubated at room temperature in the dark for 90 minutes. Reaction are stopped by vacuum filtration onto 0.3% polyethyleneimine soaked filter mats using Filtermate harvester. Scintilation cocktail is then melted onto microwave-dried filters on a hot plate and the radio activity is counted in Microbia counter.
Rule: inhibition of 20% or more gives fulfilled; anything lower gives not fulfilled.

These recorded examples may help you get a feel for the data.
| Compound | Label class |
| --- | --- |
| Cc1csc(NC(=O)c2cc(F)cc(Oc3cncnc3)c2)n1 | fulfilled |
| Cc1c(F)cccc1NC(=O)Nc1ccc(Cl)c(S(=O)(=O)[C@H]2CCCNC2)c1O | not fulfilled |
| NC[C@H](O)c1ccc(O)c(O)c1 | fulfilled |

# check: inhibition of CC(C)NCC(O)c1ccc(N)c(C#N)c1 (stereo unspecified) is greater than or equal to 20%
fulfilled

---

Items are presented alongside their recorded inhibition.
target: D(1A) dopamine receptor (Homo sapiens) (UniProt P21728); settings: Compound concentration 10 µM
Sequence (P21728 whole entry): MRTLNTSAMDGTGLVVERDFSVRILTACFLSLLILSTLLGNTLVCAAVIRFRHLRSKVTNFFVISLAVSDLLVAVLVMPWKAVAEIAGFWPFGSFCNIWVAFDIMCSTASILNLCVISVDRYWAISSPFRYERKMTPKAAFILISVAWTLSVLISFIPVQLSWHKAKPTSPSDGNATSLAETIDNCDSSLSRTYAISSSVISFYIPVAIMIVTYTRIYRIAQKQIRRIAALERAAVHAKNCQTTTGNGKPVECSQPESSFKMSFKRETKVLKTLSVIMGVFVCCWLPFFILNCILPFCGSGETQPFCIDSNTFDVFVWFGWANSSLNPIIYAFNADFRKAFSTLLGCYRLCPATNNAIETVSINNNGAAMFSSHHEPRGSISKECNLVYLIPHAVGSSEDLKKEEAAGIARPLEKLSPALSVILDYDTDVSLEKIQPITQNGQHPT
Description: PDSP Primary Binding target: DRD1 - Compounds are tested at 10 uM concentration, plate are incubated at room temperature in the dark for 90 minutes. Reaction are stopped by vacuum filtration onto 0.3% polyethyleneimine soaked filter mats using Filtermate harvester. Scintilation cocktail is then melted onto microwave-dried filters on a hot plate and the radio activity is counted in Microbia counter.
Field format: number, assumed %, no unit text.

| Smiles record | Measurement unit | inhibition |
| --- | --- | --- |
| CC1(C)SSC(C)(C)[C@@H](NC(=O)[C@@H](N)Cc2ccc(O)cc2)C(=O)NCC(=O)N[C@@H](Cc2ccccc2)C(=O)N[C@H]1C(=O)O | % | 11.4 |
| CN(C)S(=O)(=O)c1ccc(NC(=S)N2CCC(C(O)(c3ccccc3)c3ccccc3)CC2)cc1 | % | 21.9 |
| Cc1cc(C(=O)N2Cc3cnn(C)c3Nc3ccccc32)ccc1CNC(=O)N1CCC[C@H]1C(=S)N1CCCN(C)CC1 | % | -3.37 |

Here is another molecule to look at.
Using the record for CCc1cc2c(cc1CC)CC(NC[C@H](O)c1ccc(O)c3[nH]c(=O)ccc13)C2 , state its measured inhibition.
11.9

---

Molecular target: Alpha-1A adrenergic receptor (Homo sapiens) (UniProt P35348)
Sequence (whole entry): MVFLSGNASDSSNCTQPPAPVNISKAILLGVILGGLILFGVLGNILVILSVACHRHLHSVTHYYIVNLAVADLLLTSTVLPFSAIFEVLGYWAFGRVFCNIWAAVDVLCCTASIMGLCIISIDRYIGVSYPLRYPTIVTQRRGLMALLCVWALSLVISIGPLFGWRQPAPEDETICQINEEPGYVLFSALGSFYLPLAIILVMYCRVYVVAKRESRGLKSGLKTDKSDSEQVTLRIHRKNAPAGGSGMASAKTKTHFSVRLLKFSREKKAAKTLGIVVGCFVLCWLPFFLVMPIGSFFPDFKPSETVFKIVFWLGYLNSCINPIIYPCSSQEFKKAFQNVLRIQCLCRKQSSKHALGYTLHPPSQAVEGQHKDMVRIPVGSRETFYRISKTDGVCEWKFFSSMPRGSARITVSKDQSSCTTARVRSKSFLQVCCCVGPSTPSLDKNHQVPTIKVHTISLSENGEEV
Conditions: Compound concentration 10 µM
Description: PDSP Primary Binding target: ADRA1A - Compounds are tested at 10 uM concentration, plate are incubated at room temperature in the dark for 90 minutes. Reaction are stopped by vacuum filtration onto 0.3% polyethyleneimine soaked filter mats using Filtermate harvester. Scintilation cocktail is then melted onto microwave-dried filters on a hot plate and the radio activity is counted in Microbia counter.
Items are presented alongside their recorded inhibition.
Field format: number, assumed %, no unit text.

| Smiles record | Experimental target | Measurement unit | inhibition |
| --- | --- | --- | --- |
| CCN(CC)CCCCC1CCN(CC(=O)N2c3ccccc3C(=O)Nc3cccnc32)CC1 | Alpha-1A adrenergic receptor (Homo sapiens) (UniProt P35348) | % | -8.07 |
| CC(C)NC(=O)c1ccc(C#Cc2ccncc2)cn1 | Alpha-1A adrenergic receptor (Homo sapiens) (UniProt P35348) | % | -5.19 |
| N#Cc1ccc2[nH]cc(CCCCN3CCN(c4ccc5oc(C(N)=O)cc5c4)CC3)c2c1 | Alpha-1A adrenergic receptor (Homo sapiens) (UniProt P35348) | % | 95.5 |
| NC[C@H](O)c1ccc(O)c(O)c1 | Alpha-1A adrenergic receptor (Homo sapiens) (UniProt P35348) | % | 7.82 |
| CN1CCN(c2ccc(Nc3c4ccccc4nc4ccccc34)cc2)CC1 | Alpha-1A adrenergic receptor (Homo sapiens) (UniProt P35348) | % | 50.9 |

Using the record for CNC[C@H](O)c1cccc(O)c1 , state its measured inhibition.
27.4

---

Items are presented alongside their recorded inhibition.
target: Mu-type opioid receptor (Homo sapiens); settings: Compound concentration 10 µM
Description: PDSP Primary Binding target: OPRM1 - Compounds are tested at 10 uM concentration, plate are incubated at room temperature in the dark for 90 minutes. Reaction are stopped by vacuum filtration onto 0.3% polyethyleneimine soaked filter mats using Filtermate harvester. Scintilation cocktail is then melted onto microwave-dried filters on a hot plate and the radio activity is counted in Microbia counter.
Field format: number, assumed %, no unit text.

Worked examples follow.
| Smiles record | Experimental target | Test result |
| --- | --- | --- |
| Cc1nnn(-c2ccc(-c3ccc(C4(C(=O)O)CC4)cc3)cc2)c1NC(=O)O[C@H](C)c1ccccc1 | Mu-type opioid receptor (Homo sapiens) | -8.07 |
| C=CCN1C[C@H](C)N([C@H](c2ccc(C(=O)N(CC)CC)cc2)c2cccc(O)c2)C[C@H]1C | Mu-type opioid receptor (Homo sapiens) | 98.5 |
| CCCCC#Cc1nc(NC)c2ncn([C@@H]3O[C@H](CO)[C@@H](O)[C@H]3O)c2n1 | Mu-type opioid receptor (Homo sapiens) | 2.4 |
| Cc1nc2sccn2c(=O)c1CCN1CCC(=C(c2ccc(F)cc2)c2ccc(F)cc2)CC1 | Mu-type opioid receptor (Homo sapiens) | 63.5 |
| CN1C[C@H](C(=O)N[C@]2(C)O[C@@]3(O)[C@@H]4CCCN4C(=O)[C@H](Cc4ccccc4)N3C2=O)C[C@@H]2c3cccc4[nH]cc(c34)C[C@H]21 | Mu-type opioid receptor (Homo sapiens) | 58.1 |

Using Mu-type opioid receptor (Homo sapiens) as the test system, report measured inhibition of CCCCCCCCCCCCC/C=C/[C@@H](O)[C@@H](N)COP(=O)(O)O .
30.4

---

Items are presented alongside their recorded inhibition.
molecular target: Alpha-2A adrenergic receptor (Homo sapiens) (UniProt P08913); settings: Compound concentration 10 µM
Sequence (P08913 whole entry): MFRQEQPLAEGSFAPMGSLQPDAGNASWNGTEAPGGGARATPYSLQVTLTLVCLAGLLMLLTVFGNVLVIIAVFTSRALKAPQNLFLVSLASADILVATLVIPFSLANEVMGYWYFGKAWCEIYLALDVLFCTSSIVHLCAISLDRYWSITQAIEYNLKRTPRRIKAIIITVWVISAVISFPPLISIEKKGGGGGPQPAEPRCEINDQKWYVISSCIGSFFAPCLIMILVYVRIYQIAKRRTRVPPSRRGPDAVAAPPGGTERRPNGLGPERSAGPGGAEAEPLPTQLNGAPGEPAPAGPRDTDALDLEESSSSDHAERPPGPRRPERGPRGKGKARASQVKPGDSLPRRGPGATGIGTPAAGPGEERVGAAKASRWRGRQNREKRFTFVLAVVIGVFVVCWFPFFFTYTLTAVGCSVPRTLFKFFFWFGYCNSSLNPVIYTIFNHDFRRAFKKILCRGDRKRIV
Description: PDSP Primary Binding target: ADRA2A - Compounds are tested at 10 uM concentration, plate are incubated at room temperature in the dark for 90 minutes. Reaction are stopped by vacuum filtration onto 0.3% polyethyleneimine soaked filter mats using Filtermate harvester. Scintilation cocktail is then melted onto microwave-dried filters on a hot plate and the radio activity is counted in Microbia counter.
Field format: number, assumed %, no unit text.

Worked examples follow.
| Compound | Measurement unit | inhibition |
| --- | --- | --- |
| CC(C)(C(=O)O)c1ccc(C(O)CCCN2CCC(C(O)(c3ccccc3)c3ccccc3)CC2)cc1 (stereo not given) | % | -4.3 |
| N#Cc1cccc(C(=O)Nc2cc(-c3ccccc3)nn2-c2ccccc2)c1 | % | -0.39 |
| COc1ccc(NC(=O)c2ccc(-c3ccc(-c4noc(C)n4)cc3C)cc2)cc1OCCN(C)C | % | 99.4 |

Using the record for CC(C)(N)C(=O)N[C@H](COCc1ccccc1)C(=O)N1CCC2(CC1)CN(S(C)(=O)=O)c1ccccc12 , state its measured inhibition.
10.4

Using the record for Nc1nc(NCCc2ccc(O)cc2)nc2nc(-c3ccco3)nn12 , state its measured inhibition.
19

---

molecular target: Sigma intracellular receptor 2 (Homo sapiens); details: Compound concentration 10 µM
Description: PDSP Primary Binding target: TMEM97 - Compounds are tested at 10 uM concentration, plate are incubated at room temperature in the dark for 90 minutes. Reaction are stopped by vacuum filtration onto 0.3% polyethyleneimine soaked filter mats using Filtermate harvester. Scintilation cocktail is then melted onto microwave-dried filters on a hot plate and the radio activity is counted in Microbia counter.
Binning scheme for inhibition: group 1 = under 20%, group 2 = from 20% up to 80%, group 3 = 80% and over

These recorded examples may help you get a feel for the data.
| Compound | Experimental target | Label class |
| --- | --- | --- |
| O=C1N/C(=N/c2ccccc2F)S/C1=C\c1ccc(C(=O)O)cc1 | Sigma intracellular receptor 2 (Homo sapiens) | group 2 |
| Cc1cc(NC(=O)Nc2ccc(N(C)C)cc2)c2cc(F)cc(F)c2n1 | Sigma intracellular receptor 2 (Homo sapiens) | group 1 |
| CCCCN1CCC(COC(=O)c2cc(Cl)c(N)c3c2OCCO3)CC1 | Sigma intracellular receptor 2 (Homo sapiens) | group 3 |
| O=C(O)COc1cccc(CN(Cc2ccc(-n3cccn3)cc2)S(=O)(=O)c2cccnc2)c1 | Sigma intracellular receptor 2 (Homo sapiens) | group 1 |
| CC(C)NCC(O)COc1cccc2[nH]ccc12 (configuration not stated) | Sigma intracellular receptor 2 (Homo sapiens) | group 3 |
| Cc1ccc(O)c([C@H](CCN(C(C)C)C(C)C)c2ccccc2)c1 | Sigma intracellular receptor 2 (Homo sapiens) | group 3 |
| CC1CCN(CC[C@H]2CCCN2S(=O)(=O)c2cccc(O)c2)CC1 | Sigma intracellular receptor 2 (Homo sapiens) | group 3 |
| CCCSc1nc(N[C@@H]2C[C@H]2c2ccc(F)c(F)c2)c2nnn([C@@H]3C[C@H](OCCO)[C@@H](O)[C@H]3O)c2n1 | Sigma intracellular receptor 2 (Homo sapiens) | group 2 |
| COc1cc(-n2cnc3cc(-c4ccc(Cl)cc4)sc3c2=O)ccc1OCCN1CCCC1 | Sigma intracellular receptor 2 (Homo sapiens) | group 3 |
| Cc1cn2cc(CC(=O)N3CCC4(CC3)CN(Cc3ccc(-n5nccn5)cc3Cl)C4)nc2s1 | Sigma intracellular receptor 2 (Homo sapiens) | group 2 |

Hey, which category is CC1=C2C[C@H]3[C@@H](CC=C4C[C@@H](O)CC[C@@]43C)[C@@H]2CC[C@]12O[C@@H]1C[C@H](C)CN[C@H]1[C@H]2C in, do you know?
group 3

Hey, which category is COC1CCN(c2cccc(-c3cc(NC(C)=O)nc(-n4nc(C)cc4C)n3)n2)CC1 in, do you know?
group 2

Hey, which category is Cc1nnn(-c2ccc(-c3ccc(C4(C(=O)O)CC4)cc3)cc2)c1NC(=O)O[C@H](C)c1ccccc1 in, do you know?
group 1

Hey, which category is O=C(Nc1ccc(Cl)cc1)Nc1cccc(-c2cccc(N3CCCC3)n2)c1 in, do you know?
group 1

Hey, which category is Cc1nc(-c2ccc(C(F)(F)F)cc2)sc1COc1ccc([C@H](CC(=O)O)c2ccon2)cc1 in, do you know?
group 2

Hey, which category is N#Cc1c(N)nc(SCc2csc(-c3ccc(Cl)cc3)n2)c(C#N)c1-c1ccc(OCCO)cc1 in, do you know?
group 2

Hey, which category is O=C(O)CC1CCC2(CC1)CCN(c1cc(OC(F)(F)F)ccc1Cl)CC2 in, do you know?
group 1

Hey, which category is CN1CCC(=C2c3ccccc3CC(=O)c3sccc32)CC1 in, do you know?
group 3

Hey, which category is O=C(O)C1CN(Cc2ccc(-c3nc4cc(Cc5ccccc5F)ccc4s3)c(F)c2)C1 in, do you know?
group 1

Hey, which category is O=c1ccn([C@@H]2O[C@H](COP(=O)(O)OP(=O)(O)O)[C@@H](O)[C@H]2O)c(=O)[nH]1 in, do you know?
group 1

Hey, which category is CCCCN(CCCC)C(=O)CN1C[C@@H](c2ccc3c(c2)OCO3)[C@H](C(=O)O)[C@H]1c1ccc(OC)cc1 in, do you know?
group 1

Hey, which category is CCCCCNC(=O)NS(=O)(=O)c1cc([N+](=O)[O-])ccc1NC1CCCCC1 in, do you know?
group 1

Hey, which category is CC(C)NCC(O)COc1ccc(CCOCC2CC2)cc1 (configuration not stated) in, do you know?
group 2

Hey, which category is Cc1c(C2=CCN(C(=O)N(C)C(C)C)CC2)nnn1-c1cccnc1F in, do you know?
group 2

Hey, which category is Cc1csc(NC(=O)c2cc(F)cc(Oc3cncnc3)c2)n1 in, do you know?
group 2
